# Protocol: Selectivity index, ratio of EC50 for alpha2A-adrenoceptor (unknown origin) to EC50 for alpha1A-adrenoceptor (unknown origin)
Values of Selectivity Index greater than or equal to 10 map to yes (1); values below map to no (0).

[[record]]
compound = "Brc1cccc2c1OCC=C2c1c[nH]cn1"
assigned_label = "yes (1)"

[[record]]
compound = "Clc1cccc2c1OCCC2c1c[nH]cn1 (stereo not given)"
assigned_label = "no (0)"

[[record]]
compound = "Fc1cc(Br)c2c(c1)C(c1c[nH]cn1)=CCO2"
assigned_label = "yes (1)"

[[record]]
compound = "Cc1cccc2c1OCCC2c1c[nH]cn1 (stereo not given)"
assigned_label = "no (0)"


Turning to the following compound.
(Q) // inclusive: Selectivity Index at least 10? input: Cc1cccc2c1OCC=C2c1c[nH]cn1
(A) yes (1)

----------
Reported Ki values, Alpha-1D adrenergic receptor (Homo sapiens, UniProt P25100).
The figure you give is taken to be in nM; do not add the unit.

[[record]]
compound = "COc1cccc2c1CCOC2C1=NCCN1 (centres undefined) [TASIPIMIDINE]"
number = 3090

[[record]]
compound = "Cc1cccc([C@H](C)c2cnc[nH]2)c1C [DEXMEDETOMIDINE]"
number = 1230


(Q) Which value of Ki has been reported for Clc1cccc(Cl)c1N=C1NCCN1 [CLONIDINE] in the records?
(A) 2570

(Q) Form field: reported Ki of N=C(N)NC(=O)Cc1c(Cl)cccc1Cl [GUANFACINE]
(A) 11700

----------
Reported log10 of half-life by item:
# Protocol: Metabolic stability in mouse liver microsomes assessed as elimination half life
# Type: ADME, Microsome
// units: min (pre-log); metric: half-life; scale: log10

Example cases with answers are listed next.
[[record]]
compound = "Cc1cccc2c1OCC=C2c1c[nH]cn1"
value_kind = "log10 of half-life"
number = 0.69

[[record]]
compound = "Brc1cccc2c1OCCC2c1c[nH]cn1 (stereo not given)"
value_kind = "log10 of half-life"
number = 1.68

[[record]]
compound = "Cc1cccc([C@H](C)c2cnc[nH]2)c1C"
value_kind = "log10 of half-life"
number = 2.19

[[record]]
compound = "Brc1cccc2c1OCC=C2c1c[nH]cn1"
value_kind = "log10 of half-life"
number = 0.75


(Q) What value of log10 of half-life has been recorded for this entry: Cc1cccc2c1OCCC2c1c[nH]cn1 (stereo not given)
(A) 1.57

----------
Measurement record for Alpha-1A adrenergic receptor (Homo sapiens); quantity recorded: pKi.
Hey, just a heads up that pKi is the negative log base 10 of the concentration in molar.

Some molecules with known pKi results, for comparison:
[[record]]
molecule = "NC1=N[C@]2(CCc3cccc(Cl)c3C2)OC1"
number = 8.40

[[record]]
molecule = "COc1cccc2c1CCOC2C1=NCCN1 (centres undefined)"
number = 5.51

[[record]]
molecule = "C[C@H](c1c[nH]cn1)c1cccc2ccccc12"
number = 6.35


Kindly consider the entry below.
(Q) So what's the measured pKi for this one? Cc1cccc([C@H](C)c2cnc[nH]2)c1C
(A) 5.88

----------
# Study system: Alpha-2B adrenergic receptor (Homo sapiens)
# Sequence (P18089 whole entry): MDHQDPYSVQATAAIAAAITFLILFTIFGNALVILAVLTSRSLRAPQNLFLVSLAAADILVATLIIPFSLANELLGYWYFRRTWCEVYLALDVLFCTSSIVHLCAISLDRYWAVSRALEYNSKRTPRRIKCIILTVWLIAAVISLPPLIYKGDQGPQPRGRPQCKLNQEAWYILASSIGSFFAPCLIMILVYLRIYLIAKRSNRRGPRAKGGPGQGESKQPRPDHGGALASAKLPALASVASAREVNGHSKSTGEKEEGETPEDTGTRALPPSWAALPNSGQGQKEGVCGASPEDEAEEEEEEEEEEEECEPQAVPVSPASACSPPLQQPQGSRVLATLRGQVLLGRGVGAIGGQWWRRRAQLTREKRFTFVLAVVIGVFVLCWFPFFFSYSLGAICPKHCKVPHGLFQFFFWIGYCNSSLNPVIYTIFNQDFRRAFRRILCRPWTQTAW
// reported Ki for each item listed
Quick reminder: number only, in nM, skip the unit.

[[record]]
molecule_smiles = "C[C@H](c1c[nH]cn1)c1cccc2ccccc12"
number = 35.5

[[record]]
molecule_smiles = "NC1=N[C@]2(CCc3cccc(Cl)c3C2)OC1"
number = 0.251


Now look at this entry.
(Q) Sample C1=C(c2ccc3c(c2)CC3)CNCC1 — what was its Ki?
(A) 60.3

----------
# Protocol: Metabolic stability in mouse liver microsomes assessed as intrinsic clearance
# Format: ADME, Microsome
# Condition description: read-out: CLH
Value kind: microsomal CLint (µL/min/mg)
Write the answer as a number in µL/min/mg, unit excluded.

Here are 4 compounds together with their reported answers.
[[record]]
compound = "Brc1cccc2c1OCCC2c1c[nH]cn1 (stereo not given)"
value_kind = "microsomal CLint"
number = 29

[[record]]
compound = "Cc1cccc([C@H](C)c2cnc[nH]2)c1C [DEXMEDETOMIDINE]"
value_kind = "microsomal CLint"
number = 8.89

[[record]]
compound = "Cc1cccc2c1OCC=C2c1c[nH]cn1"
value_kind = "microsomal CLint"
number = 284

[[record]]
compound = "Brc1cccc2c1OCC=C2c1c[nH]cn1"
value_kind = "microsomal CLint"
number = 249


Moving on to the next compound.
(Q) Any idea what microsomal CLint was measured for Cc1cccc2c1OCCC2c1c[nH]cn1 (stereo not given) ?
(A) 37.7

----------
Assay system Alpha-2A adrenergic receptor (Homo sapiens, UniProt P08913); read-out recorded as EC50.
Could you give me the number in nM? Just the number is fine.

(Q) What value of EC50 has been recorded for this entry: Brc1ccc2c(c1)C(c1c[nH]cn1)CCO2 (centres undefined)
(A) 446

(Q) Please report the recorded EC50 for Fc1ccc2c(c1)OCCC2c1cnc[nH]1 (centres undefined) .
(A) 80.9

(Q) Query (molecule): Cc1cccc2c1OCCC2c1c[nH]cn1 (centres undefined) ; field requested: EC50
(A) 2.09

(Q) Fill blank: measured EC50 of the molecule Fc1cccc2c1OCC=C2c1c[nH]cn1 is ____.
(A) 77.3

(Q) Using the record for Cc1ccc2c(c1)C(c1c[nH]cn1)=CCO2 , report its EC50.
(A) 896

(Q) Given the molecule Fc1cccc2c1OCCC2c1c[nH]cn1 (centres undefined) , what is its reported EC50?
(A) 56.9

----------
# Study system: Alpha-2A adrenergic receptor (Homo sapiens, UniProt P08913)
# Sequence (P08913 whole entry): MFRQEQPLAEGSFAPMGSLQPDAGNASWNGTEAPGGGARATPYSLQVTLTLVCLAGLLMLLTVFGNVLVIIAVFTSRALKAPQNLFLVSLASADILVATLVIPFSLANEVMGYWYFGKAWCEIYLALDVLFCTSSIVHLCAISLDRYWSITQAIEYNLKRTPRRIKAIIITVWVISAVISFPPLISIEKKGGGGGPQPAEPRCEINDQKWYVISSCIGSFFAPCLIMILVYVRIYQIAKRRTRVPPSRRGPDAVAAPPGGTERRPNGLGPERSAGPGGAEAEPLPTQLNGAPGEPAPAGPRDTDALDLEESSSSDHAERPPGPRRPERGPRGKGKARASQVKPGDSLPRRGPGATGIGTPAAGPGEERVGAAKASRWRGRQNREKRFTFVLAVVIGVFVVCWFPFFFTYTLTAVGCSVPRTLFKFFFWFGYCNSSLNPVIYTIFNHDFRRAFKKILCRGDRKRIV
Recorded Ki for the following compounds

// known answers, use as guide
[[record]]
compound = "NC1=N[C@]2(CCc3cccc(Cl)c3C2)OC1"
study_system = "Alpha-2A adrenergic receptor (Homo sapiens, UniProt P08913)"
result = "0.316 nM"

[[record]]
compound = "Clc1cccc2c(Nc3ccncc3)cccc12"
study_system = "Alpha-2A adrenergic receptor (Homo sapiens, UniProt P08913)"
result = "8.32 nM"

[[record]]
compound = "COc1cccc2c1CCOC2C1=NCCN1 (centres undefined)"
study_system = "Alpha-2A adrenergic receptor (Homo sapiens, UniProt P08913)"
result = "8.71 nM"


With those in mind, consider the next compound.
(Q) Which Ki reading was recorded for the compound C[C@H](c1c[nH]cn1)c1cccc2ccccc12 ?
(A) 15.5 nM

----------
# Study system: Alpha-1A adrenergic receptor (Homo sapiens)
# Sequence (P35348 whole entry): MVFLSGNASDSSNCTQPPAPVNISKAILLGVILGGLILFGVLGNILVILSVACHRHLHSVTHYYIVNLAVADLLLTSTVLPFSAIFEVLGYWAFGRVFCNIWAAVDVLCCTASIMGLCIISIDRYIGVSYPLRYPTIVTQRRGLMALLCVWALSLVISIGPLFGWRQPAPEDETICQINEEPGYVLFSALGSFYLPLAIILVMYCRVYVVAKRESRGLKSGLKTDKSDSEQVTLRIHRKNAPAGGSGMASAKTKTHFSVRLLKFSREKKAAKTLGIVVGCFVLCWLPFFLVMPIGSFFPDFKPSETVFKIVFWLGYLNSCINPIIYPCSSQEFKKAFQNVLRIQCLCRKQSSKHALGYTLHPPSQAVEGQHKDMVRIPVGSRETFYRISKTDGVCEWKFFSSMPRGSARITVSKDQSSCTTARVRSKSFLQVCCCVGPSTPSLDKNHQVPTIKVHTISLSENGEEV
# Protocol: Agonist activity at alpha1A-adrenoceptor (unknown origin) expressed in HEK293T cells assessed as fluorescence intensity measured after 30 mins by IP-one homogeneous time-resolved fluorescence assay
pEC50: −log10 of the molar value.
Binary call on pEC50: yes from 8 upward, no beneath that.

[[record]]
compound = "Fc1cc(Br)c2c(c1)C(c1c[nH]cn1)=CCO2"
assigned_label = "no"

[[record]]
compound = "Cc1cccc2c1OCCC2c1c[nH]cn1 (configuration not stated)"
assigned_label = "yes"

[[record]]
compound = "Brc1cccc2c1OCC=C2c1c[nH]cn1"
assigned_label = "no"

[[record]]
compound = "Cc1cccc2c1OCC=C2c1c[nH]cn1"
assigned_label = "no"

[[record]]
compound = "Clc1cccc2c1OCCC2c1c[nH]cn1 (configuration not stated)"
assigned_label = "yes"


Please look at the following compound next.
(Q) Assess whether reported pEC50 for Brc1cccc2c1OCCC2c1c[nH]cn1 (configuration not stated) sits at 8 or higher.
(A) yes
